Target of assay: IKZF1 (dCK*-IKZF1 fusion in HEK293FT) (UniProt Q13422)
Sequence (Q13422 whole entry, looked up, the tested form may be a part): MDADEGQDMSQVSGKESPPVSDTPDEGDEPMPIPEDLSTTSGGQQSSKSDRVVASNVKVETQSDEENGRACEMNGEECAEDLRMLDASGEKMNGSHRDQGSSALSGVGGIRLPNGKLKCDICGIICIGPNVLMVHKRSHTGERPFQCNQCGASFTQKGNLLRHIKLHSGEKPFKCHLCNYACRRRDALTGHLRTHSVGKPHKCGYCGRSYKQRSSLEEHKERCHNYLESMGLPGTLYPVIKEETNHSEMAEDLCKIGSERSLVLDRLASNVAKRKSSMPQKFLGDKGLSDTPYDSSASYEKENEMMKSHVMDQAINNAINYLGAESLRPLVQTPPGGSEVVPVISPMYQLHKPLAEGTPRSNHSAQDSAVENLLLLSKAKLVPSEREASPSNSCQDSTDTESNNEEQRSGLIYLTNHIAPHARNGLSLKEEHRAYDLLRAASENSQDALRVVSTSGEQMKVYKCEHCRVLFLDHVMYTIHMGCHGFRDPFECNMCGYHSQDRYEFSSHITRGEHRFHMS
Assay method text: inhibition of IKZF1 HTRF signal (DMSO = 0%, pomalidomide 10 uM = 100%); higher = lower IKZF1 protein level
Condition summary: compound concentration: 5 uM, overnight (~20 h)
Measured metric: inhibition of IKZF1 HTRF signal (%)
Give just the numeric value; % need not be written.

Example results:
>  <Molecule>
Nc1ccc2ncnc(NCCc3ccc(Oc4ccccc4)cc3)c2c1

>  <Value observed>
20.9

$$$$
>  <Molecule>
Clc1ccc(COC(Cn2ccnc2)c2ccc(Cl)cc2Cl)cc1 (stereo not given) [Econazole Nitrate]

>  <Value observed>
-40.1

$$$$
>  <Molecule>
COc1ccc(C2CC(c3c(O)cc(C)oc3=O)=NCCS2)c(OC)c1 (stereo not given)

>  <Value observed>
-11

$$$$
>  <Molecule>
CC(C)(C)c1cc(O)c(C(C)(C)C)cc1O

>  <Value observed>
-31.7

$$$$
>  <Molecule>
CC(C)[C@H]1c2ccc(F)cc2CC[C@@]1(CCN(C)CCCc1nc2ccccc2[nH]1)OC(=O)C1CC1

>  <Value observed>
-25.9

$$$$
>  <Molecule>
CSc1nc2cc(Cl)c(Oc3cccc(Cl)c3Cl)cc2[nH]1

>  <Value observed>
-43

$$$$

Would you kindly look at the next entry?
Input CCN(c1ccccc1)c1cc(NC)[n+](C)c(C)n1 . Output inhibition of IKZF1 HTRF signal: 26.3
